Attribution: patent US4593093A

system: Enterobacter cloacae; assay: Activity in vitro: minimum inhibitory concentration; assay type: cell-based; conditions: Enterobacter cloacae strain 2
Counter-ions that a name gives are not always drawn.
ENDPOINT: MIC (µg/mL)
Numbers only, in µg/mL.

Below: 3 molecules and their reported MIC.
CC(=O)OCC1=C(C(=O)[O-])N2C(=O)[C@@H](NC(=O)/C(=N\O)c3c[se]c(N)n3)[C@H]2SC1.[Na+] [Product L] | 6.3
CO/N=C(\C(=O)N[C@@H]1C(=O)N2C(C(=O)O)=C(COC(C)=O)CS[C@H]12)c1c[se]c(N)n1 [Product D, disodium salt] | 3.1
CO/N=C(\C(=O)N[C@@H]1C(=O)N2C(C(=O)O)=C(CSc3nc(=O)c(O)nn3C)C[S+]([O-])[C@H]12)c1c[se]c(N)n1 (stereo partly drawn) [Product E, disodium salt] | 0.2

Batch lookup, MIC per entry.
1. CO/N=C(\C(=O)N[C@@H]1C(=O)N2C(C(=O)O)=C(C)CS[C@H]12)c1c[se]c(N)n1 [Product F, sodium salt]
2. CC(C)(O/N=C(\C(=O)N[C@@H]1C(=O)N2C(C(=O)[O-])=C(C[n+]3ccccc3)CS[C@H]12)c1c[se]c(N)n1)C(=O)O [Product K]
3. CO/N=C(\C(=O)N[C@@H]1C(=O)N2C(C(=O)[O-])=C(CSc3nnnn3C)CS[C@H]12)c1c[se]c(N)n1.[Na+] [Product A]

1. 25
2. 1.6
3. 0.8

====

Please provide measured ED50 for the entries that follow.
system: Serratia marcescens; test: Activity in vivo: survival of intraperitoneally infected mice; details: sc, 96 h, mice infected i.p. with Serratia marcescens strain 1, s.c. twice, 1 h and 3 h after infection, survival on 4th day, read-out: CD50 (dosage at which 50% of the animals survive)
Where a name gives a salt, the structure may show the parent alone.
Reply with a number, then the unit it belongs to.

Below: 3 compounds and their reported ED50.
CO/N=C(\C(=O)N[C@@H]1C(=O)N2C(C(=O)O)=C(CSc3nc(=O)c(O)nn3C)C[S+]([O-])[C@H]12)c1c[se]c(N)n1 (stereo partly shown) [Product E, disodium salt] | 0.03 mg/kg
CC1=C(C(=O)[O-])N2C(=O)[C@@H](NC(=O)/C(=N\O)c3c[se]c(N)n3)[C@H]2SC1.[Na+] | 3.5 mg/kg
CO/N=C(\C(=O)N[C@@H]1C(=O)N2C(C(=O)O)=C(CSc3nc(=O)c(O)nn3C)CS[C@H]12)c1c[se]c(N)n1 [Product C, disodium salt] | 0.07 mg/kg

Batch lookup, ED50 per entry.
1. CC(=O)OCC1=C(C(=O)O)N2C(=O)[C@@H](NC(=O)/C(=N\OC(C)(C)C(=O)O)c3c[se]c(N)n3)[C@H]2SC1 [Product I, disodium salt]
2. CO/N=C(\C(=O)N[C@@H]1C(=O)N2C(C(=O)O)=C(CSc3nnc(C)s3)CS[C@H]12)c1c[se]c(N)n1 [Product B, sodium salt]
3. CO/N=C(\C(=O)N[C@@H]1C(=O)N2C(C(=O)O)=C(COC(C)=O)CS[C@H]12)c1c[se]c(N)n1 [Product D, disodium salt]
4. CO/N=C(\C(=O)N[C@@H]1C(=O)N2C(C(=O)[O-])=C(CSc3n[nH]c(=O)c(=O)n3C)CS[C@H]12)c1c[se]c(N)n1.[Na+]
5. CO/N=C(\C(=O)N[C@@H]1C(=O)N2C(C(=O)O)=C(C)CS[C@H]12)c1c[se]c(N)n1 [Product F, sodium salt]
6. CC(C)(O/N=C(\C(=O)N[C@@H]1C(=O)N2C(C(=O)[O-])=C(C[n+]3ccccc3)CS[C@H]12)c1c[se]c(N)n1)C(=O)O

["1.8 mg/kg", "0.52 mg/kg", "0.14 mg/kg", "0.2 mg/kg", "0.59 mg/kg", "0.11 mg/kg"]

Quick check: ED50 on Serratia marcescens, item CO/N=C(\C(=O)N[C@@H]1C(=O)N2C(C(=O)[O-])=C(CSc3nnnn3C)CS[C@H]12)c1c[se]c(N)n1.[Na+] ?
0.13 mg/kg
